test system: Human alphaherpesvirus 3; test: Antiviral activity against thymidine kinase-deficient Varicella-zoster virus YS/R infected in human HEL cells assessed as reduction in the virus plaque formation; format: functional, organism-based; settings: Human alphaherpesvirus 3, YS/R
Listed here: items and their measured EC50.

Examples with their reported EC50 follow.
Which measured EC50 value corresponds to COC(=O)[C@H](C)NP(=O)(OC[C@H]1O[C@@H](n2cc(I)c(=O)[nH]c2=O)C(F)(F)[C@@H]1O)Oc1cccc2ccccc12 (stereo partly specified) ? > 50 µM

Query `O=c1[nH]c(=O)n([C@@H]2O[C@H](CO)[C@@H](O)C2(F)F)cc1Cl` next > 50 µM

Query `O=c1[nH]c(=O)n([C@@H]2O[C@H](CO)[C@@H](O)C2(F)F)cc1Br` next > 50 µM

Query `Cc1cn([C@@H]2O[C@H](CO)[C@@H](O)C2(F)F)c(=O)[nH]c1=O` next > 50 µM

Query `O=c1[nH]c(=O)n([C@H]2C[C@H](O)[C@@H](CO)O2)cc1/C=C/Br` next > 150 µM

Here is the next item to consider.
Which measured EC50 value corresponds to `O=c1[nH]c(=O)n([C@@H]2O[C@H](CO)[C@@H](O)C2(F)F)cc1I` ? > 50 µM
